Data origin, for the record: patent US20220213201A1

Each entry below carries its reported Human ELISA.
Molecular target: T1, human TIE2-his (Sino Biological, 10700-H08H) (human, UniProt Q02763 23-745)
T1 construct: Bought protein; also called hTIE2-his; hTIE2; not shown: his tag
T1 sequence (Q02763 23-745 limits assumed): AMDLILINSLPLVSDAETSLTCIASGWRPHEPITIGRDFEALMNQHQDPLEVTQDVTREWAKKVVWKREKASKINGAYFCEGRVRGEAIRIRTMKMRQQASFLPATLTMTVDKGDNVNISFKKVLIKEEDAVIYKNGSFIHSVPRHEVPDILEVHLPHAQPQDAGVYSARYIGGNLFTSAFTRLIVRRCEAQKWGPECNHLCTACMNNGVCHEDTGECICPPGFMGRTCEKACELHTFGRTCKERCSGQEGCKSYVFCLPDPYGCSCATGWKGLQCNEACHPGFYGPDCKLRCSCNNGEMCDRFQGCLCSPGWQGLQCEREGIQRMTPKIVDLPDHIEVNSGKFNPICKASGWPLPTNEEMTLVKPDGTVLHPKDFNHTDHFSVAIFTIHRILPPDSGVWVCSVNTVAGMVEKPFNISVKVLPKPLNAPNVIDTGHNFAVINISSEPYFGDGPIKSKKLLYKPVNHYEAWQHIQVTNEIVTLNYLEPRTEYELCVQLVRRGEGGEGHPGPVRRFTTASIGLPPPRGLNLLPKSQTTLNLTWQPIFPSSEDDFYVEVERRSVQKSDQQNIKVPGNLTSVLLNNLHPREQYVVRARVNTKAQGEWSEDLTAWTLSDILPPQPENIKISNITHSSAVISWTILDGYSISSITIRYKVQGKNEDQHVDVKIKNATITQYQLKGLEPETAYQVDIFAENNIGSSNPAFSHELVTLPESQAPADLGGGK
Assay: ELISA, scFv phage on coated hTIE2-his, HRP anti-M13 detection
Respond using a number only.

Previously resolved entries follow.
1A9 monoclonal scFv phage (scFv) QMQLVQSEAEVKKPGASVKVSCKASGYTFNSYDIHWVRQAPGQGLEWMGVVNPPGGTGSTVYAQKFEDRLTLTTDMSTSTAYMELSSLRSEDTAVYYCARDYNRAPPTLDVWGQGTTITVSSNFMLTQPASVSGSPGQSITISCTGSSSDVGGYNYVSWYQQHPGKAPQLIIYDVTKRPSGVSNRFSGSKSGNSASLTISGLQAEDEADYYCSSYSSSTFYVFGTGTKVTVLG
2.4
2F2 monoclonal scFv phage (scFv) QVQLVESGGGLVQPGGSLRLSCAASGFTFSSYAMTWVRQAPGKGLEWVSRISGSGGSTNYADSVKGRFTISRDNSKNTLYLQMNSLRAEDTAVYYCARGGLHHGFDIWGQGTMVTVSSSYELTQPPSLSVAPGKTARITCDGDNIESKSVHWYQQKPGQAPVLVIYYDNDRPSGIPERFSGSNSGNTATLTISRVEAGDEADYYCQVWDTYTDQPVFGGGTKLTVLG
1.9

Assign Human ELISA to the following record: 3D6 monoclonal scFv phage (scFv) QVQLVESGGGLVQPGGSLRLSCIGSGFTFSRYNINWVRQAPGKGLEWVSSISSSGRFIHYAGSVKGRFTVSRDNTKNSVSLQMNSLRAEDTAVYYCARDSPTQGPYYYYGMDVWGQGTTITVSSSYELTQPPSESVAPGKTATITCGGNKIGSKSVHWYQQKPGQAPLMVIYYDSDRPSGIPERFSGSNSGNTATLTISRVEVGDEADYYCQVWDSSSDRPVFGGGTKLTVLG
2.1

Give reported Human ELISA value for 4E2 monoclonal scFv phage (scFv) QVQLVQSGGGLIQPGGSLRLSCAASGFTFSDYAMHWVRQAPGKGLEWVALISFDGNNQYYADSVKGRFTISRDNSKNTIYLQMNSLRAEDTAVYYCTTDTMSGYDWEDAFDIWGQGTMITVSSDIQMTQSPSSLSASIGDRVTITCRASQSIGRWLAWYQQKPGKAPKLLIYAASSLQSGVPSRFSGSGSGTDFTLTISSLQPEDFATYYCQQSYSTPYTFGQGTKVEIKR
1.2
